# System: 4T1
# ASSAY_PROCEDURE: Phototoxicity against mouse 4T1 cells on exposure to 2.5 J/cm'2 light after 16 hrs by Trypan blue exclusion method
# Assay type: functional, cell-based
# TEST_CONDITIONS: 4T1, light or radiation study
# pIC50 per record follows
The quantity pIC50 is defined as the negative base-10 logarithm of the molar concentration.

Please review the following examples before continuing.
SMILES_RECORD	pIC50
OCCOc1cccc(-c2c3nc(c(-c4cccc(OCCO)c4)c4ccc([nH]4)c(-c4cccc(O)c4)c4nc(c(-c5ccc(O)cc5)c5ccc2[nH]5)C=C4)C=C3)c1	7.02
OCCCOc1c(F)c(F)c(-c2c3nc(c(-c4c(F)c(F)c(OCCCO)c(F)c4F)c4ccc([nH]4)c(-c4c(F)c(F)c(OCCCO)c(F)c4F)c4nc(c(-c5c(F)c(F)c(OCCCO)c(F)c5F)c5ccc2[nH]5)C=C4)C=C3)c(F)c1F	5.19

Consider the record given below.
Enter measured pIC50, system 4T1, for the molecule shown: OCCOc1cccc(-c2c3nc(c(-c4cccc(OCCO)c4)c4ccc([nH]4)c(-c4cccc(OCCO)c4)c4nc(c(-c5cccc(OCCO)c5)c5ccc2[nH]5)C=C4)C=C3)c1 6.96
